- Assay Target: Progesterone receptor (Homo sapiens) (UniProt P06401)
- Sequence (P06401 whole entry, looked up): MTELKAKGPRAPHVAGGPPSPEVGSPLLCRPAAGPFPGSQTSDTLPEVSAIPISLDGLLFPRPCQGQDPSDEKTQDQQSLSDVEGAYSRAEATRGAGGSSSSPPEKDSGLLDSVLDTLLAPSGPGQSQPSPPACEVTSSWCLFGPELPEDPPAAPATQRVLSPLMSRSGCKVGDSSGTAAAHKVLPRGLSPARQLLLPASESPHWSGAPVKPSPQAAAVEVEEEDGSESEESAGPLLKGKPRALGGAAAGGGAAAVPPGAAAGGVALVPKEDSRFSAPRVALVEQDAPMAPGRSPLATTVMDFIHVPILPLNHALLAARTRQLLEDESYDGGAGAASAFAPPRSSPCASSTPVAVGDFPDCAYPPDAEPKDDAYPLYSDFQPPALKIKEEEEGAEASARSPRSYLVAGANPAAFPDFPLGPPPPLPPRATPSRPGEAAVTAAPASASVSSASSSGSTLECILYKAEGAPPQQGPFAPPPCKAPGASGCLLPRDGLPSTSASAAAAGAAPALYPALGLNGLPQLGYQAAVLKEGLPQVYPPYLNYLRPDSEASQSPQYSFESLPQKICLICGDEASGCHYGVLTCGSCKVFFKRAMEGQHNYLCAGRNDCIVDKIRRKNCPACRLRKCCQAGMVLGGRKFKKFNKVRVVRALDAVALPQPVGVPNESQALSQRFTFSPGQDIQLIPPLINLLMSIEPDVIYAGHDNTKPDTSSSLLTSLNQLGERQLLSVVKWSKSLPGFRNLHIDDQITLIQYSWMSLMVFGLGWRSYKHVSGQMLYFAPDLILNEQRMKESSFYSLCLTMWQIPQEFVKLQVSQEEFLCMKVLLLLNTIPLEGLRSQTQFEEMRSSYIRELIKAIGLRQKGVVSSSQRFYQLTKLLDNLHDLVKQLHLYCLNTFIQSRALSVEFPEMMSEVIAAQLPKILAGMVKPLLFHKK
- Method Notes: qHTS assay to identify small molecule antagonists of the progesterone receptor (PR) signaling pathway (AID 1346795)
- Condition: PR-UAS-bla HEK293T, beta-lactamase FRET ratio, 16 h; series mostly up to 92.4 µM
Records with an inconclusive call do not appear. Active and inactive are the calls of the source. Calls follow the shape of the dose curve; as a rule, active = well fitted inhibition curve with a large enough effect in the signal ratio in the repeat runs (not every such curve was filed as active); inconclusive = weak or mixed curves; inactive = flat fitted curve, though single readings scatter; the % refers to the signal ratio.
Respond only with the outcome that fits, drawn from 1 for active, 0 for inactive

1) C=C(C)C(=O)OCCN(C)C :: 0
2) Cc1ccccn1 :: 0
3) C=CC(C)(CCC=C(C)C)OC(=O)c1ccccc1 (stereo unspecified) :: 0
4) CN1CCN(C2=Nc3cc(Cl)ccc3Nc3ccccc32)CC1 :: 1
5) Cc1nc2ccccc2n1Cc1ccc(Cl)cc1 :: 1

Hi team, can someone confirm the assay call for `O=C(c1ccc(O)cc1)c1ccc(O)cc1` ?
1

Try this compound next: `CC(=O)OC/C=C/c1ccccc1`
0

Try this compound next: `Cc1ccccc1N=Nc1ccc(N=Nc2c(O)ccc3ccccc23)c(C)c1`
0

Try this compound next: `O=C(NS(=O)(=O)/C=C/c1cccs1)c1ccc(F)cc1Br`
0

Try this compound next: `CCOc1ccc2[nH]cc(C(=O)NCc3ccccc3)c(=O)c2n1`
0

Try this compound next: CC(C)(C)C1CCCCC1O (stereo unspecified)
0
